B1: CCNC (parent)
chain: QSSHYLQWILDKQDLLKERQKDLK

Variants of: B1
Assay: protein stability index of a GFP-peptide fusion (GPS, HEK-293T) (PSI 1-6); higher = more stable;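 also: lentivirally expressed fusions sorted by FACS into six bins by GFP to DsRed ratio, PSI derived from sequencing read proportions per bin multiplied by bin number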
Conditions: c terminus: a fixed tail appended
measure-name: protein stability index

• QSSHYLQWILDKQDLLKERSKDLK = 3.38
• QSSHYLQWILDKVDLLKERQKDLK = 2.76
• QSSHYLRWILDKQDLLKERQKDLK = 2.37
• QSSHYLQWILDKQDGLKERQKDLK = 3.44
• QSSHYLQWILDKQNLLKERQKDLK = 3.39
• QSSHYLQWILDKQILLKERQKDLK = 2.55
• QSDHYLQWILDKQDLLKERQKDLK = 3.9
• QSSHYLQWKLDKQDLLKERQKDLK = 4.09
• QSSHYLQWYLDKQDLLKERQKDLK = 3.32
• QSSHYLQWILDKQDLLKERQKALK = 2.61
• QSSHYLQWILDPQDLLKERQKDLK = 3.29
• ISSHYLQWILDKQDLLKERQKDLK = 2.28
• QSSHYLQWILDKQDLEKERQKDLK = 4
• QSSHYLQRILDKQDLLKERQKDLK = 4.18
• QSSHYLQWILAKQDLLKERQKDLK = 3.01
• QSSHYLQWILDKQDLLKERQKDLP = 2.4
• QSSHYLQWILDKQDLLKERQKDFK = 2.82
• QSSHCLQWILDKQDLLKERQKDLK = 3.61
• QSSFYLQWILDKQDLLKERQKDLK = 1.88
• QSSHYLQWILDKWDLLKERQKDLK = 2.36
• QSSHYLQDILDKQDLLKERQKDLK = 4.55
• QSSHYLQWILDKQDLDKERQKDLK = 3.58

Every entry's value here was drawn from the supplement of paper PMC10567573.
